Data origin, for the record: patent US11267824B2

- System under test: Recombinant full-length human IDO1 (Homo sapiens (Human), UniProt P14902)
- Sequence (P14902 whole entry): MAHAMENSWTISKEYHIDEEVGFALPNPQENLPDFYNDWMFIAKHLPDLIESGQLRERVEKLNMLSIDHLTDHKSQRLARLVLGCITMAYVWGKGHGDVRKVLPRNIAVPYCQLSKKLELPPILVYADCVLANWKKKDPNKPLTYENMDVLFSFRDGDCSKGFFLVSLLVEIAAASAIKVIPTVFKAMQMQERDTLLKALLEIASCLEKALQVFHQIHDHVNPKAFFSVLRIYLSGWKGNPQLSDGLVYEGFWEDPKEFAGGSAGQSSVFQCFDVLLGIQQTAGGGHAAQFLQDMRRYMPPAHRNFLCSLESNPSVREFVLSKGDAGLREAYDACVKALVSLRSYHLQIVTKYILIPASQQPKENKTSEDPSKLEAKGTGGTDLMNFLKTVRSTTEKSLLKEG
- Experimental protocol: IDO1 enzymatic assay (IDO inhibitory activity)
- Type: biochemical
- Condition context: 2 nM enzyme, 5 μM L-tryptophan, pH6.5, 30 min pre-incubation, NFK quantified by LCMS; mean values if measured multiple times; read-out: hIDO activity (IC50 in nM)
Listed next: entries and their corresponding IC50.

Compound: CC1(C)CCC(C(O)c2c(C3CC3)sc3cncn23)C1 (stereo not drawn)
IC50: 18.8 nM
--
Compound: CC1(C)CCCC(CC(O)c2c(C3CC3)sc3cncn23)C1 (stereo not drawn)
IC50: 85.1 nM
--
Compound: CC(C)C1CCC(CC(O)c2c(C3CC3)sc3cncn23)CC1 (racemic)
IC50: 511 nM
--
Compound: Cc1sc2cncn2c1C(O)c1ccccc1 (racemic)
IC50: 561 nM
--
Compound: OC(CC1CC2C=CC1C2)c1c(C2CC2)sc2cncn12 (stereo not drawn)
IC50: 22.6 nM
--
Compound: CC1(C)CCC(CC(O)c2c(C(F)(F)F)sc3cncn23)C1 (stereo not drawn)
IC50: 313 nM
--
Compound: CC1(C)CCC(C(O)c2c(C(F)(F)F)sc3cncn23)C1 (stereo not drawn)
IC50: 56.7 nM
--
Compound: OC(c1c(C2CC2)sc2cncn12)C12CC(c3ccccc3)(C1)C2 (racemic)
IC50: 28.6 nM
--
Compound: CC(C)n1cc(C(O)c2c(C3CC3)sc3cncn23)cn1 (racemic)
IC50: 111 nM
